Cited source: ChEMBL document CHEMBL1773049

protocolText: Half life in Wistar rat at 1 mg/kg, iv
Assay type: ADME, organism-based
Parameters: dose 1 mg/kg, route intravenous
condition: in vivo
observationType: half-life
Quick note: number first, unit second.

IN: Please look up its half-life: `O=C(N[C@H]1C[C@H]2CC[C@@H](C1)N2)[C@@H](Cc1ccc(Cl)cc1)NC(=O)C1(c2ccc(Cl)cc2)CC1`
OUT: 8.2 h

###

protocolText: Tmax in Wistar rat at 10 mg/kg, po
Assay type: ADME, organism-based
Parameters: dose 10 mg/kg, route oral
condition: in vivo
observationType: Tmax (h)
Report the figure in h without appending any unit label.

{"columns": ["smilesEntry", "Tmax, h"],
 "data": [
  ["O=C(Cc1ccc(Cl)cc1)N[C@H](Cc1ccc(Cl)cc1)C(=O)N[C@H]1C[C@H]2CC[C@@H](C1)N2", 1.2]
]}

// next item, Tmax requested
IN: What value of Tmax has been reported for the following compound? `O=C(N[C@H]1C[C@H]2CC[C@@H](C1)N2)[C@@H](Cc1ccc(Cl)cc1)NC(=O)C1(c2ccc(Cl)cc2)CC1`
OUT: 3.5
